system: TK-10 renal; test: NCI tumour cell line growth inhibition, 48 h
Would you kindly list TGI for each of these molecules?

Given the entry CN(C)c1ccc(/C=C(\NC(=O)c2ccccc2)c2nn(C)c(=O)o2)cc1 , report its measured TGI.
> 100 µM

Given the entry COC(=O)/C(=N\NC(C)(C)C)C(C(=O)C(=O)Nc1cc(C)ccc1C)c1nc2ccccc2[nH]c1=O (stereo not drawn) , report its measured TGI.
> 100 µM

Given the entry c1cncc(CC2(c3cc4ccccc4[nH]3)OCCO2)c1 , report its measured TGI.
> 100 µM

###

system: U251 CNS; experiment: NCI tumour cell line growth inhibition, 48 h
recordedEndpoint: TGI

Given the entry COc1ccc(/C=C2\CCCC(C(NO)c3ccc(OC)cc3)C2=NO)cc1 (centres undefined) , report its measured TGI.
> 100 µM

Given the entry O=C(CCc1cc(O)cc(O)c1)NCCCNC(=O)CCc1cc(O)cc(O)c1 , report its measured TGI.
> 100 µM

Given the entry O=C1C(c2ccccc2)=[N+]([O-])c2ccccc21 , report its measured TGI.
28.7 µM

Given the entry CS(=O)(=O)CSCSSCS(C)(=O)=O , report its measured TGI.
> 100 µM

Given the entry COc1ccc(-c2c3c(n(C4OC(CO)C(O)C(O)C4O)c(=S)c2C#N)CCC3)cc1 (centres undefined) , report its measured TGI.
> 100 µM

Given the entry Cc1cc2c(cc1Cl)SC1=NN(C)C(N(C)C)N1S2(=O)=O (centres undefined) , report its measured TGI.
> 100 µM

Given the entry N#C/C(=C/n1c(=S)[nH]c2ccc([N+](=O)[O-])cc21)C(N)=O , report its measured TGI.
> 100 µM

Given the entry CCOc1cc(/C=N\Nc2nnc(C)n2N)c(C)cc1N(CCCl)CCCl , report its measured TGI.
> 28.5 µM

Given the entry CCOC(=O)c1s/c(=N\Nc2nc3ccccc3cc2C2OCCO2)n(Cc2ccccc2)c1C , report its measured TGI.
> 100 µM
